# ASSAY TARGET: Phosphatidylinositol 4,5-bisphosphate 3-kinase catalytic subunit alpha isoform (Homo sapiens)
# Sequence (P42336 whole entry, canonical isoform): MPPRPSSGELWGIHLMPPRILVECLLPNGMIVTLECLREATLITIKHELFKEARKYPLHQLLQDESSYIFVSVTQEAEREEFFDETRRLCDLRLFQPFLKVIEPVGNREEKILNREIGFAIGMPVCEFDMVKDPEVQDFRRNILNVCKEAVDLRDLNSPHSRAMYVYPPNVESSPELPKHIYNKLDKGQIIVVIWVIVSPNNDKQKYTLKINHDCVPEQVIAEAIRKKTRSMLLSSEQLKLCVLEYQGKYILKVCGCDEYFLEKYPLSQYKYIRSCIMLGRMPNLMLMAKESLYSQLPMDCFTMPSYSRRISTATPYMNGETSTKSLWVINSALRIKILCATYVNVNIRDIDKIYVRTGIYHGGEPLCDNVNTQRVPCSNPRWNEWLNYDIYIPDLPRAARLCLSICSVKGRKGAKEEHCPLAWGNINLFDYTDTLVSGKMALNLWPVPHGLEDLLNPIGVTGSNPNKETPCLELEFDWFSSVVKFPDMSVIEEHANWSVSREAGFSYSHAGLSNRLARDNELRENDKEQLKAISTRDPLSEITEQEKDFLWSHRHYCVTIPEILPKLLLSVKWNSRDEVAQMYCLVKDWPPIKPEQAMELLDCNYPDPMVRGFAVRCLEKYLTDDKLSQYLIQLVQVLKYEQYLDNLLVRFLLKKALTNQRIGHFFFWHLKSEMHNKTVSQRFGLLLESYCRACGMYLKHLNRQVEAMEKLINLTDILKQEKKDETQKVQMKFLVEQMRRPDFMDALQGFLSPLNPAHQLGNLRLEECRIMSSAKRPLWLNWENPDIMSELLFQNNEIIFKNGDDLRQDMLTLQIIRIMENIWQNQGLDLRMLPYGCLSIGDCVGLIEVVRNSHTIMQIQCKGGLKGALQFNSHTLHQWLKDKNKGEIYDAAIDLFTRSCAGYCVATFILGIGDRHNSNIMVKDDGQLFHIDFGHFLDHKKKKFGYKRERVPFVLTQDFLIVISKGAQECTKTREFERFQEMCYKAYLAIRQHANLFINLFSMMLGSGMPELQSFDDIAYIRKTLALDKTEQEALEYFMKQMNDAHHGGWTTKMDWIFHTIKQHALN
# EXPERIMENT SUMMARY: Inhibition of PI3Kalpha (unknown origin) using PIP2 as substrate incubated for 60 mins in presence of ATP by ADP-Glo assay
PROPERTY MEASURED: IC50 (nM)
Write it as a number; the unit nM goes unstated.

Input line: What measured IC50 goes with O=S(=O)(Nc1cc(-c2cnc3[nH]nc(-c4ccncc4)c3c2)cnc1Cl)c1ccc(F)cc1 ?
Output line: 0.65

Input line: What measured IC50 goes with O=S(=O)(Nc1cc(-c2cnc3[nH]nc(-c4ccncc4)c3c2)cnc1Cl)c1ccccc1 ?
Output line: 1.17

----------
# EXPERIMENT SUMMARY: Tmax in fasted Sprague-Dawley rat at 10 mg/kg, po measured for 24 hrs by LC-MS/MS analysis
# Format: ADME, organism-based
# CONDITION SUMMARY: in vivo
PROPERTY MEASURED: Tmax (h)
Write it as a number; the unit h goes unstated.

Input line: What measured Tmax goes with O=S(=O)(Nc1cc(-c2cnc3[nH]nc(-c4ccncc4)c3c2)cnc1Cl)c1ccc(F)cc1 ?
Output line: 2.8

----------
# EXPERIMENT SUMMARY: AUC (0 to infinity) in fasted Sprague-Dawley rat at 10 mg/kg, po measured for 24 hrs by LC-MS/MS analysis
# Assay type: ADME, organism-based
# CONDITION SUMMARY: in vivo
PROPERTY MEASURED: AUC(0-inf) (ng·h/mL)
Write it as a number; the unit ng·h/mL goes unstated.

Input line: What measured AUC(0-inf) goes with O=S(=O)(Nc1cc(-c2cnc3[nH]nc(-c4ccncc4)c3c2)cnc1Cl)c1ccc(F)cc1 ?
Output line: 121

----------
# ASSAY TARGET: Phosphatidylinositol 4,5-bisphosphate 3-kinase catalytic subunit delta isoform (Homo sapiens)
# Sequence (O00329 whole entry): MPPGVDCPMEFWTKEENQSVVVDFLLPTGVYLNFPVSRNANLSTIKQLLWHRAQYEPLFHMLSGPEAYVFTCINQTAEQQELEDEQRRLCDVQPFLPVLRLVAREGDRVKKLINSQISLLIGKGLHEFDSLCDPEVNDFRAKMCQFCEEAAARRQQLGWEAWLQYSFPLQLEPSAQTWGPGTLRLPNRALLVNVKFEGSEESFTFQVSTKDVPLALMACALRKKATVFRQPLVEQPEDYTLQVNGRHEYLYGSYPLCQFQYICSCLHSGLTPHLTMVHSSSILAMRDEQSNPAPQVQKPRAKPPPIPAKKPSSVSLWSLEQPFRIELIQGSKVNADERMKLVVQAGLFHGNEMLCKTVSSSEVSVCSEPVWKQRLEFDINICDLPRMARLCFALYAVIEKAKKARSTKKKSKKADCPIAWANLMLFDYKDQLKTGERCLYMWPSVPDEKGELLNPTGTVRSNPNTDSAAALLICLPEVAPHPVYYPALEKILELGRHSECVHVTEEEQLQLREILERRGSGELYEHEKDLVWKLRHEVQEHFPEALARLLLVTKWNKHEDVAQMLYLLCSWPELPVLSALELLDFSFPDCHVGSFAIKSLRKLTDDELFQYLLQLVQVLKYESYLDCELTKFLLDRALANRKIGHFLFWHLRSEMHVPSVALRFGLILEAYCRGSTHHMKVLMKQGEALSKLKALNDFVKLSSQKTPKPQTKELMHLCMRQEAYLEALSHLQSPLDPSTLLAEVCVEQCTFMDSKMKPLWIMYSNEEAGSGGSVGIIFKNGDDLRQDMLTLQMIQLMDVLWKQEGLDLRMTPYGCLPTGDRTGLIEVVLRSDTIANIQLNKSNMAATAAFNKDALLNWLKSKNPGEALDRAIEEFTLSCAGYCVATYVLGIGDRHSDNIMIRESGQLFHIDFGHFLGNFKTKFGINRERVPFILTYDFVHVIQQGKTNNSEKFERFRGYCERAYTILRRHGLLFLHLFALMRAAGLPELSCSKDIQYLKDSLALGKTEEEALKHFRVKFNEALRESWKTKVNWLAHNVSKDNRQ
# EXPERIMENT SUMMARY: Inhibition of PI3Kdelta (unknown origin) using PIP2 as substrate incubated for 60 mins in presence of ATP by ADP-Glo assay
PROPERTY MEASURED: pIC50
Formally, pIC50 is defined as -log10 of the concentration c, with c in mol/L.

Input line: What measured pIC50 goes with O=S(=O)(Nc1cc(-c2cnc3[nH]nc(-c4ccccc4)c3c2)cnc1Cl)c1ccccc1 ?
Output line: 8.91

Input line: What measured pIC50 goes with O=S(=O)(Nc1cc(-c2cnc3[nH]nc(-c4ccncc4)c3c2)cnc1Cl)c1ccccc1 ?
Output line: 9.17

----------
# EXPERIMENT SUMMARY: Apparent volume of distribution in fasted Sprague-Dawley rat at 2 mg/kg, iv measured for 24 hrs by LC-MS/MS analysis
# Assay type: ADME, organism-based
# CONDITION SUMMARY: in vivo, read-out: Vz
PROPERTY MEASURED: Vd
Note to self: number, then unit, no commentary.

Input line: What measured Vd goes with O=S(=O)(Nc1cc(-c2cnc3[nH]nc(-c4ccncc4)c3c2)cnc1Cl)c1ccc(F)cc1 ?
Output line: 7.26 L/kg

----------
# Test system: EOL1
# EXPERIMENT SUMMARY: Antiproliferative activity against human EOL1 cells incubated for 48 hrs by CCK8 assay
# Format: functional, cell-based
# CONDITION SUMMARY: EOL1, 48 h
PROPERTY MEASURED: IC50 (nM)
Write it as a number; the unit nM goes unstated.

Input line: Form field: IC50 recorded for Cn1c(=O)n(-c2ccc(C(C)(C)C#N)cc2)c2c3cc(-c4cnc5ccccc5c4)ccc3ncc21 with EOL1 (enter value)
Output line: 1050

----------
# Tested on: KG-1
# EXPERIMENT SUMMARY: Antiproliferative activity against human KG-1 cells incubated for 48 hrs by CCK8 assay
# Assay type: functional, cell-based
# CONDITION SUMMARY: KG-1, 48 h
PROPERTY MEASURED: IC50 (µM)
Write it as a number; the unit µM goes unstated.

Input line: What measured IC50 goes with Cn1c(=O)n(-c2ccc(C(C)(C)C#N)cc2)c2c3cc(-c4cnc5ccccc5c4)ccc3ncc21 ?
Output line: 1.31

----------
# EXPERIMENT SUMMARY: Oral bioavailability in fasted Sprague-Dawley rat at 10 mg/kg measured for 24 hrs by LC-MS/MS analysis
# Assay type: ADME, organism-based
# CONDITION SUMMARY: in vivo
PROPERTY MEASURED: bioavailability (%)
Write it as a number; the unit % goes unstated.

Input line: What measured bioavailability goes with O=S(=O)(Nc1cc(-c2cnc3[nH]nc(-c4ccncc4)c3c2)cnc1Cl)c1ccc(F)cc1 ?
Output line: 2.68

----------
Provide the recorded IC50 for the entries that follow.
# ASSAY TARGET: Phosphatidylinositol 4,5-bisphosphate 3-kinase catalytic subunit beta isoform (Homo sapiens, UniProt P42338)
# Sequence (P42338 whole entry, canonical isoform): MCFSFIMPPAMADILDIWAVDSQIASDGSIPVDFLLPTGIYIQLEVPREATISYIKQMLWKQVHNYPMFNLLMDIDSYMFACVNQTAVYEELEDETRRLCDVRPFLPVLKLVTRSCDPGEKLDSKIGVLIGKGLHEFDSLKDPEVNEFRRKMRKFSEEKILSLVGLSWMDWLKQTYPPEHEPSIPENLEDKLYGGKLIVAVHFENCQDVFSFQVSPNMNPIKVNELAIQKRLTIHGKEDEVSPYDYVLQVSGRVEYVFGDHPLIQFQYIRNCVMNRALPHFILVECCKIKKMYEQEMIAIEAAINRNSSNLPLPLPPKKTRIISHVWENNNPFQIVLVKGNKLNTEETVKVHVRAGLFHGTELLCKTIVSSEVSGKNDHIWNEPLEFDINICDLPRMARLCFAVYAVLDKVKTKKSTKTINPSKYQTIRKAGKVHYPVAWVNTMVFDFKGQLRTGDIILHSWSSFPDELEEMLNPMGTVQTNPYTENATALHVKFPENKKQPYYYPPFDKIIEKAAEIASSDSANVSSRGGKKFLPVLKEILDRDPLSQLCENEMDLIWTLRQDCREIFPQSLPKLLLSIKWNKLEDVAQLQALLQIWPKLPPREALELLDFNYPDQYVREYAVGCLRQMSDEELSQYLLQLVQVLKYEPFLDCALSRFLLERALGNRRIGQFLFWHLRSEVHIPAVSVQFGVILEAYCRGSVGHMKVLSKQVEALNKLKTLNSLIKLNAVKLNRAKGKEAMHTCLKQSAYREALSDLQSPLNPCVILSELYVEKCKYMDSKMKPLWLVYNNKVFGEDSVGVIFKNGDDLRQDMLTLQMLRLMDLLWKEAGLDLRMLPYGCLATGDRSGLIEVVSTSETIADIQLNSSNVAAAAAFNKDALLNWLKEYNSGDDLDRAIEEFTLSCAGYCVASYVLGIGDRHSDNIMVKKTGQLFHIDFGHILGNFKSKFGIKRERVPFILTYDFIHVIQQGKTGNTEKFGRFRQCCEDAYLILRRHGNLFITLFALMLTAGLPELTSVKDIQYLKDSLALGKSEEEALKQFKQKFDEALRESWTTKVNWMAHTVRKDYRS
# EXPERIMENT SUMMARY: Inhibition of PI3Kbeta (unknown origin) using PIP2 as substrate incubated for 60 mins in presence of ATP by ADP-Glo assay
Write it as a number; the unit nM goes unstated.

Input line: What measured IC50 goes with O=S(=O)(Nc1cc(-c2cnc3[nH]nc(-c4ccncc4)c3c2)cnc1Cl)c1ccc(F)cc1 ?
Output line: 1.57

Input line: What measured IC50 goes with O=S(=O)(Nc1cc(-c2cnc3[nH]nc(-c4ccncc4)c3c2)cnc1Cl)c1ccccc1 ?
Output line: 4.37

----------
# EXPERIMENT SUMMARY: AUC (0 to t) in fasted Sprague-Dawley rat at 2 mg/kg, iv measured for 24 hrs by LC-MS/MS analysis
# Assay type: ADME, organism-based
# CONDITION SUMMARY: in vivo
PROPERTY MEASURED: AUC(0-t) at 24 h (ng·h/mL)
Write it as a number; the unit ng·h/mL goes unstated.

Input line: What measured AUC(0-t) at 24 h goes with O=S(=O)(Nc1cc(-c2cnc3[nH]nc(-c4ccncc4)c3c2)cnc1Cl)c1ccc(F)cc1 ?
Output line: 898

----------
# ASSAY TARGET: Serine/threonine-protein kinase mTOR (Homo sapiens)
# EXPERIMENT SUMMARY: Inhibition of N-terminal FLAG-tagged recombinant human mTOR (1362 to end residues) using ULight-4E-BP1 (Thr37/46) peptide as substrate incubated for 30 mins in presence of ATP by LANCE ultra assay
Provide the recorded pIC50 for the entries that follow.
Formally, pIC50 is defined as -log10 of the concentration c, with c in mol/L.

Input line: What measured pIC50 goes with O=S(=O)(Nc1cc(-c2cnc3[nH]nc(-c4ccccc4)c3c2)cnc1Cl)c1ccccc1 ?
Output line: 8.58

Input line: What measured pIC50 goes with O=S(=O)(Nc1cc(-c2cnc3[nH]ncc3c2)cnc1Cl)c1ccccc1 ?
Output line: 7.49

Input line: What measured pIC50 goes with O=S(=O)(Nc1cc(-c2cnc3[nH]nc(-c4ccncc4)c3c2)cnc1Cl)c1ccccc1 ?
Output line: 8.37
